- Target System: Neuropeptide S receptor (Homo sapiens) (UniProt Q6W5P4)
- Sequence (Q6W5P4 whole entry, looked up): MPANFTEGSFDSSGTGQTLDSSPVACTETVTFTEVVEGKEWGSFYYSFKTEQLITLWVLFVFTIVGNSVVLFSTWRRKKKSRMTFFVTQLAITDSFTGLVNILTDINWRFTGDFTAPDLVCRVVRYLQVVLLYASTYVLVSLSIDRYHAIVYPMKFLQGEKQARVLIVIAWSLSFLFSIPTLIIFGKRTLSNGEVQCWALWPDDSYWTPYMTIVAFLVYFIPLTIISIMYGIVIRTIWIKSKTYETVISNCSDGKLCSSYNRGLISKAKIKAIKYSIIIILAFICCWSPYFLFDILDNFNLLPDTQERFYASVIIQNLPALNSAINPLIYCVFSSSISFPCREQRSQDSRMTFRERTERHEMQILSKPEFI
- Protocol Details: Confirmation Concentration-Response Assay for Antagonists of the Neuropeptide S Receptor: cAMP Signal Transduction
- Condition Summary: CHO-NPSR cells, cAMP TR-FRET, antagonist mode; series mostly up to 22.3 µM
Inconclusive results are not listed. Activity calls are given as the source filed them. Calls come from the whole dose curve; as a rule, active = well fitted inhibition curve with a large enough effect in the main read-out, with a control signal flat; inconclusive = small, poorly fitted or top-dose-only effect, or a change in a side signal; inactive = flat fitted curve, though single readings scatter.
Measured Metric: outcome

[
  {
    "Record Smiles": "NC(=S)N/N=C/c1ncc(C(F)(F)F)cc1Cl",
    "Measured Result": "inactive"
  },
  {
    "Record Smiles": "Cc1oc2c(c1C(=O)NCc1cccnc1)C(=O)c1ccccc1C2=O",
    "Measured Result": "inactive"
  },
  {
    "Record Smiles": "Cc1ccc(-n2ncc3c(NCc4ccc5c(c4)OCO5)ncnc32)c(C)c1",
    "Measured Result": "inactive"
  }
]

###

- Target System: Neuropeptide S receptor (Homo sapiens) (UniProt Q6W5P4)
- Protocol Details: Confirmation Concentration-Response Assay for Antagonists of the Neuropeptide S Receptor: cAMP Signal Transduction
- Condition Summary: CHO-NPSR cells, cAMP TR-FRET, antagonist mode; series mostly up to 22.3 µM
- Source text: NIH Chemical Genomics Center [NCGC] NIH Molecular Libraries Probe Production centers Network [MLPCN] […] This change in intracellular cAMP level can be detected by a homogeneous LANCE cAMP assay based on the TR-FRET (time resolved fluorescence resonance energy transfer) between a europium-labeled cAMP tracer complex and a cAMP-specific antibody labeled with Alexa Fluor 647. […] Both emission signals from the FRET donor (620 nm) and the acceptor (665 nm) can be detected by a plate reader in the TRF mode. […]
Results filed as inconclusive are left out. The source made the active and inactive calls. Calls come from the whole dose curve; as a rule, active = well fitted inhibition curve with a large enough effect in the main read-out, with a control signal flat; inconclusive = small, poorly fitted or top-dose-only effect, or a change in a side signal; inactive = flat fitted curve, though single readings scatter.
Hello, when you answer, please use one of the following outcomes: active, inactive

q: Entry `Brc1ccc(CSc2ncn[nH]2)cc1` : call = ?
a: inactive

q: Entry Nc1ncnc2c1C(c1ccccc1)c1c(ccc3ccccc13)O2 (stereo not drawn) : call = ?
a: active

q: Entry `CN(CC(=O)NCc1ccc(F)cc1)S(=O)(=O)c1cccc2nsnc12` : call = ?
a: inactive
